The measured values listed here are drawn from the RNAGym collection of RNA variant scans (doi:10.1126/science.aae0568).

B1: tRNA (parent)
chain: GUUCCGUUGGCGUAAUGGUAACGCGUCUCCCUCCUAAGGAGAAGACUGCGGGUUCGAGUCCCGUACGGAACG

- Variants of: B1
- Test Method Notes: yeast fitness relative to wild type (ratio to wild type); higher = fitter; tRNA-Arg(CCU), competitive growth, 37 C, YPD
This sample holds only a part of the variants without activity.
Give yeast fitness for every item shown.
Just the number, please, no unit attached.

Lookup: Using the record for A21G U32A U47A , state its measured yeast fitness.
Found: 0.556

Lookup: Quickly give me recorded yeast fitness for G10A G58A
Found: 0.767

Lookup: Respond only with yeast fitness recorded for G44A A57G G58A
Found: 0.695

Lookup: Output measured yeast fitness for this item: G48C G67C A70U
Found: 0.53

Lookup: Tell me yeast fitness reported for U8G C24A C30G A40G U47G C55U
Found: 0.512

Lookup: Please indicate yeast fitness recorded for C46U C61A G67A
Found: 0.568

Lookup: Provide one value: measured yeast fitness of G25A C31A
Found: 0.671

Lookup: For A14G U54C A70G , write its yeast fitness.
Found: 0.535

Lookup: Give me measured yeast fitness, please, for this variant: C27G A37G
Found: 0.678

Lookup: Supply measured yeast fitness of U26C A42C in your reply.
Found: 0.828

Lookup: Supply recorded yeast fitness for U64A C66G here.
Found: 0.7

Lookup: Read the entry C5G U59G G63A and write its reported yeast fitness.
Found: 0.526

Lookup: For the variant C31A C34U , give its measured yeast fitness value.
Found: 0.555

Lookup: Query yeast fitness for C30U C61G
Found: 0.671

Lookup: State, in one line, measured yeast fitness of A37C U47G
Found: 0.573

Lookup: Please report the measured yeast fitness for C30U C61U
Found: 0.826

Lookup: Tell me yeast fitness reported for U2A U32C A57G
Found: 0.652

Lookup: Tell me its yeast fitness given C11A C30G A45U C60A as the entry.
Found: 0.537
